Tested on: SK-MEL-2
Test: NCI tumour cell line growth inhibition, 48 h
Activity calls are given as the source filed them. Rule as the data show it: active = GI50 up to about 1.1 µM and inactive = higher.
PARAMETER: GI50

Below, each entry is followed by its recorded GI50 result.
Please report GI50 for the following compound: CC12Nc3ccccc3N1C(=O)c1ccccc12 (stereo unspecified)
> 100 µM (inactive)

Please report GI50 for the following compound: "CCOC(=O)Nc1ccc(S(=O)(=O)I)cc1.CCOC(=O)Nc1ccc(S(=O)(=O)I)cc1.CNC(=O)N=O.NC(=O)OCCCl"
43.6 µM (inactive)

Please report GI50 for the following compound: "CCOc1nnnc2[nH]cnc12"
> 100 µM (inactive)

Please report GI50 for the following compound: O=C(O)C(F)(OC(F)(F)C(F)(F)C(F)(F)F)C(F)(F)F (stereo unspecified)
> 100 µM (inactive)

Please report GI50 for the following compound: CC1(CCc2ccccc2)CC1(Br)Br (stereo unspecified)
17.8 µM (inactive)

Consider now this further compound.
Please report GI50 for the following compound: "COc1cc2c(c(OC)c1OC)-c1[nH]ncc1CC2"
> 100 µM (inactive)
